- Test system: CCRIS mutagenicity, Ames/micronucleus/aberration tests
- experimental protocol: CCRIS mutagenicity studies
- run conditions: Test System: AMES SALMONELLA TYPHIMURIUM; Strain/Indicator: TA1538; Metabolic Activation: NONE; Method: STANDARD PLATE
Active and inactive are the calls of the source. The rule behind the calls is not given here.
# output must be one of active, inactive

Would you please look over these solved cases?
O=PO.O=PO.[Mn+2]: inactive
O=S1(=O)OC(c2cc(Br)c(O)c(Br)c2)(c2cc(Br)c(O)c(Br)c2)c2c(Br)c(Br)c(Br)c(Br)c21: inactive
OC/C=C/c1ccccc1: inactive
O=C(O)CCCc1c[nH]c2ccccc12: inactive
O=C(O)[C@@H]1CS[C@H](c2ccccc2O)N1C(=O)CCSSCCC(=O)N1[C@@H](c2ccccc2O)SC[C@H]1C(=O)O: inactive
Cc1nnc(NS(=O)(=O)c2ccc(N)cc2)s1: inactive
CCN(CCCl)c1ccc(OCCCCCNc2c3ccccc3nc3ccccc23)cc1: inactive
O=[N+]([O-])c1ccc2c(c1)Cc1ccccc1-2: active
Clc1nnc(Cl)c2ccccc12: inactive
CC(C)NCC(O)COc1cccc2c1OCC(O)C2 (stereo not given): inactive

Any idea what this test logged for `FC(F)(F)c1ccc(Cl)cc1` ? inactive

Query: recorded result category for `C=CC(=O)O` in this test inactive

GET /call?item= `C=CCc1ccc(O)c(OC)c1` returns the recorded outcome of this test. inactive
